System: Human Breast Cancer BCAP-37 Cells xenografts
Test: In vivo efficacy in inhibiting growth of human breast cancer BCAP-37 cells xenografts in nude mice
Details: Mus musculus, Bcap37, po, 360 h; female nude mice, BCAP-37 xenograft, 35 mg/kg fed once every day for 15 days, tumor weight vs olive oil negative control; read-out: Inhibition rate of tumor growth (%)
I'd be grateful if you could share measured inhibition in vivo at 35 mg/kg for these entries.
One number for each entry, in %.

Past entries and their recorded results:
INSERT INTO results (smiles_notation, unit_descriptor, readout_value) VALUES
  ('COc1c(-c2ccc(Cl)cc2)oc2c(CC=C(C)C)c(O)cc(O)c2c1=O', '%', 37),
  ('CC(C)=CCc1c(O)cc(O)c2c(=O)cc(-c3ccc(Cl)cc3)oc12', '%', 66),
  ('COc1ccc(-c2oc3c(CCC(C)(C)O)c(O)cc(O)c3c(=O)c2OC)cc1OC', '%', 44),
  ('COc1ccc(-c2oc3c(CC=C(C)C)c(O)cc(O)c3c(=O)c2OC)cc1OC', '%', 26),
  ('CC(C)=CCc1c(O)ccc2c(=O)cc(-c3ccncc3)oc12', '%', 56);

Parameters: items (list). Returns: inhibition in vivo at 35 mg/kg for each item.
1. CC(C)=CCc1c(O)ccc2c(=O)cc(-c3cccnc3)oc12
2. COc1ccc(-c2oc3c(CCC(C)(C)N)c(O)cc(O)c3c(=O)c2O)cc1

[24, 62]
